B1: Gamma-crystallin D, residues 90 to 170; numbered along this chain, P07320 (parent)
chain: IRLYEREDYRGQMIEFTEDCSCLQDRFRFNEIHSLNVLEGSWVLYELSNYRGRQYLLMPGDYRRYQDWGATNARVGSLRRV

Variants of: B1
TEST_METHOD_NOTES: abundance fitness (aPCA) (normalised: wild type 0, dead -1); higher = more abundant; growth selection in yeast, the domain comes from the species named
EXPERIMENTAL_CONDITIONS: Homo sapiens
Provide the reported abundance fitness of each item.
The response must contain the number and no unit.

Ask: Report measured abundance fitness; entry is E46C
Reply: -0.201

Ask: Give abundance fitness for the following variant: L44T
Reply: -0.03

Ask: Query abundance fitness for R6K
Reply: -0.027

Ask: Tell us which abundance fitness value is on record for Y45E
Reply: -1.04

Ask: Tell me its abundance fitness given R6P as the entry.
Reply: -1.02

Ask: Output abundance fitness of F16S
Reply: 0.035

Ask: Supply reported abundance fitness belonging to this variant: G52D
Reply: -0.775

Ask: Consider the variant L57T and give its recorded abundance fitness.
Reply: -0.016

Ask: Specify measured abundance fitness for R26F .
Reply: -0.292

Ask: Respond only with abundance fitness recorded for Y9M
Reply: 0.064

Ask: State its abundance fitness for this variant: M58V
Reply: 0.032

Ask: Note abundance fitness for the variant shown: E15I
Reply: -0.034

Ask: Answer with reported abundance fitness of Y55E
Reply: 0.241

Ask: Provide one value: measured abundance fitness of C20V
Reply: -0.061

Ask: Please look at this variant and report its abundance fitness: S48L
Reply: -0.204

Ask: Answer with the recorded abundance fitness of I14D only.
Reply: 0.08

Ask: Give reported abundance fitness value for N30H
Reply: -0.081

Ask: Specify abundance fitness for V43W and stop.
Reply: -0.028

Ask: Give abundance fitness for H33W
Reply: 0.02

Ask: Please supply the value of reported abundance fitness for the item I14T
Reply: -0.018

Ask: Name the recorded abundance fitness of the variant listed here: S48V
Reply: -0.159

Ask: Report abundance fitness, nothing else, for this variant: E31D
Reply: -0.096

Ask: State, in one line, measured abundance fitness of E7C
Reply: -0.333

Ask: Let me know recorded abundance fitness for M58W , thanks.
Reply: -0.118

Ask: Return reported abundance fitness. Input variant: W42T
Reply: -0.492

Ask: Provide only the value of recorded abundance fitness for F27S
Reply: 0.011

Ask: Respond only with abundance fitness recorded for S41H
Reply: -0.006

Ask: Please report abundance fitness for the following variant: G40I
Reply: -0.113

Ask: Specify abundance fitness for I1V and stop.
Reply: -0.094

Ask: Recall and state the measured abundance fitness for V37L .
Reply: 0.096

Ask: Using the record for I1N , state its measured abundance fitness.
Reply: 0.12

Ask: State its abundance fitness for this variant: I32P
Reply: -0.003

Ask: Report measured abundance fitness; entry is R6D
Reply: -0.172

Ask: // fetch abundance fitness given entry L56H
Reply: 0.13

Ask: Check the records and state abundance fitness for E31G
Reply: 0.035

Ask: For the variant L56F , report abundance fitness.
Reply: 0.093

Ask: Annotate the variant L56K with its measured abundance fitness.
Reply: 0.035

Ask: Supply recorded abundance fitness for Q54I here.
Reply: -0.245

Ask: Name the recorded abundance fitness of the item R53H in your answer.
Reply: 0.062

Ask: Supply reported abundance fitness belonging to this variant: R10P
Reply: -1.07

Ask: Give abundance fitness for E31K
Reply: -0.004

Ask: Please indicate abundance fitness recorded for G11A
Reply: 0.035

Ask: Look up abundance fitness of R26C and report it.
Reply: 0.091

Ask: Please list abundance fitness recorded for the variant Q24H
Reply: 0.08

Ask: Item F29W : provide abundance fitness
Reply: 0.031

Ask: For the variant R26W , report abundance fitness.
Reply: 0.061

Ask: Specify measured abundance fitness for D25K .
Reply: 0.103

Ask: In one line, give reported abundance fitness of the entry D8S .
Reply: -0.03

Ask: Note abundance fitness for the variant shown: S34M
Reply: -0.689

Ask: Supply reported abundance fitness belonging to this variant: T17L
Reply: 0.001

Ask: Identify the reported abundance fitness for the following entry. E31I
Reply: 0.139

Ask: Please give measured abundance fitness of the following entry: L38W
Reply: 0.153

Ask: Return the recorded abundance fitness value; entry: R28P
Reply: -0.023

Ask: Dear colleague, please send me the reported abundance fitness for Q12V when you can.
Reply: 0.1

Ask: Supply measured abundance fitness of L3G in your reply.
Reply: -0.131

Ask: Dear colleague, please send me the reported abundance fitness for F16T when you can.
Reply: -0.089

Ask: Supply abundance fitness value. Item: I14F
Reply: 0.019

Ask: For F27M , write its abundance fitness.
Reply: -0.129

Ask: Complete the entry with abundance fitness for Q12Y
Reply: 0.007

Ask: Supply abundance fitness value. Item: S41F
Reply: -0.384

Ask: Using known records, supply abundance fitness for L44H
Reply: -0.721

Ask: Look up and report measured abundance fitness for this entry: N49A
Reply: -0.109

Ask: # return recorded abundance fitness for entry E15A
Reply: -0.065

Ask: Indicate the recorded abundance fitness value for this variant: F29P
Reply: 0.069

Ask: Name the recorded abundance fitness of the item L56G in your answer.
Reply: 0.016

Ask: Respond only with abundance fitness recorded for Y9D
Reply: -0.076

Ask: Look up and report measured abundance fitness for this entry: L44F
Reply: -0.021

Ask: Tell me its abundance fitness given G11P as the entry.
Reply: -0.521

Ask: Given L47I , respond with its abundance fitness.
Reply: -0.16

Ask: Kindly indicate its recorded abundance fitness. Item: Y4G
Reply: -0.683

Ask: Could you please provide reported abundance fitness for C20D ? Thanks!
Reply: 0.108

Ask: # return recorded abundance fitness for input Q12W
Reply: -0.176

Ask: Item N49S : provide abundance fitness
Reply: -0.09

Ask: Fill in reported abundance fitness for this entry: S41Q
Reply: 0.022

Ask: Given the variant S34C , write its reported abundance fitness.
Reply: -0.014

Ask: For Y50N , write its abundance fitness.
Reply: 0.003

Ask: Please list abundance fitness recorded for the variant E31H
Reply: 0.059

Ask: // fetch abundance fitness given entry F29V
Reply: -0.072

Ask: State its abundance fitness: S41P
Reply: -0.171

Ask: Entry L3T needs its abundance fitness filled in; supply it.
Reply: -0.239

Ask: Read the entry R6G and write its reported abundance fitness.
Reply: -0.011

Ask: Using known records, supply abundance fitness for Y55L
Reply: 0.107

Ask: Provide one value: measured abundance fitness of E15S
Reply: -0.11

Ask: Respond only with abundance fitness recorded for V37H
Reply: -0.086

Ask: Read off the recorded abundance fitness for H33G
Reply: 0.079

Ask: Identify abundance fitness associated with the variant R6N
Reply: 0.153

Ask: State, in one line, measured abundance fitness of L47G
Reply: -0.027

Ask: Give recorded abundance fitness. E46P
Reply: -0.199

Ask: State, in one line, measured abundance fitness of S21D
Reply: 0.044

Ask: Consider the variant S34H . State its measured abundance fitness.
Reply: -0.771

Ask: Given M13E , respond with its abundance fitness.
Reply: -0.056
